biological target: MBNL1/(CUG)4 complex (Homo sapiens); construct: The MBNL1 medium construct (1-260) was purified as previously described; made in house; experiment: competitive EMSA (gel shift assay), disruption of the MBNL1/(CUG)4 complex; format: binding; settings: competitive EMSA, 250 nM MBNL, 0.5 nM (CUG)4, 250 μM bromophenol blue; ± standard deviation of triplicate; read-out: IC50 of diamidine analogs
Sequence (Q9NR56 1-260, one chain of several): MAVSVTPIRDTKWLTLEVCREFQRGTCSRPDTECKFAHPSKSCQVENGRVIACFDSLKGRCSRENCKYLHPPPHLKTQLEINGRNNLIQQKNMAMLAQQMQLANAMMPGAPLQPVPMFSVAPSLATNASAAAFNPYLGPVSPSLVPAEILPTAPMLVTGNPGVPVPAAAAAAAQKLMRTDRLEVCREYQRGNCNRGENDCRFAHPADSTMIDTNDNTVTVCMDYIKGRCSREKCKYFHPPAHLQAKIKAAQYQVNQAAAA
pIC50: −log10 of the molar value.

{"columns": ["MOLECULE", "pIC50"],
 "data": [
  ["N=C(N)c1ccc(OCCCOc2ccc(C(=N)N)cc2)cc1", 3.60],
  ["N=C(N)c1ccc(OCCCCCCOc2ccc(C(=N)N)cc2)cc1", 4.59],
  ["N=C(N)c1ccc(OCCCCCCCOc2ccc(C(=N)N)cc2)cc1", 4.70],
  ["N=C(N)c1ccc(OCCCCCCCCCOc2ccc(C(=N)N)cc2)cc1", 4.85],
  ["N=C(N)c1ccc(OCCCCOc2ccc(C(=N)N)cc2)cc1", 4.07],
  ["N=C(N)c1ccc(OCCCCCOc2ccc(C(=N)N)cc2)cc1 [Pentamidine, reference compound]", 4.41],
  ["N=C(N)c1ccc(OCCCCCCCCOc2ccc(C(=N)N)cc2)cc1", 4.70]
]}

====

target: MBNL1/(CUG)4 complex (Homo sapiens); construct: The MBNL1 medium construct (1-260) was purified as previously described; made in house; assay: competitive EMSA (gel shift assay), disruption of the MBNL1/(CUG)4 complex; format: binding; conditions: competitive EMSA as in Example 1; Table 2; read-out: IC50 of diamidine derivatives
Parameter IC50: see the listing below.
ASSAY_METRIC: IC50 (µM)

{"columns": ["MOLECULE", "ASSAYED_TARGET", "UNIT_OF_MEASURE", "MEASUREMENT"],
 "data": [
  ["N=C(N)c1ccc(OCCCc2ccccc2)cc1 [drawing 9 n=3]", "MBNL1/(CUG)4 complex (Homo sapiens)", "µM", 169],
  ["N=C(N)c1ccc(OCCCCCCOc2ccccc2)cc1 [drawing 8 n=6]", "MBNL1/(CUG)4 complex (Homo sapiens)", "µM", 236],
  ["N=C(N)c1ccc(OCCCCc2ccccc2)cc1 [drawing 9 n=4]", "MBNL1/(CUG)4 complex (Homo sapiens)", "µM", 212]
]}

====

tested on: INSR minigene exon 11 splicing in HeLa cells expressing 960 CUG repeats; test: INSR minigene splicing rescue in HeLa cell DM1 model; assay type: cell-based; conditions: HeLa cell DM1 model, exon 11 inclusion, 16-18 hours; read-out: EC50 for rescue of INSR mis-splicing
pEC50: −log10 of the molar value.
ASSAY_METRIC: pEC50

{"columns": ["QUERY_SMILES", "ASSAYED_TARGET", "MEASUREMENT"],
 "data": [
  ["N=C(N)c1ccc(OCCCCCCCCOc2ccc(C(=N)N)cc2)cc1", "INSR minigene exon 11 splicing in HeLa cells expressing 960 CUG repeats", 5.15],
  ["N=C(N)c1ccc(OCCCCCCCCCOc2ccc(C(=N)N)cc2)cc1", "INSR minigene exon 11 splicing in HeLa cells expressing 960 CUG repeats", 5.22],
  ["N=C(N)c1ccc(OCCCCOc2ccc(C(=N)N)cc2)cc1", "INSR minigene exon 11 splicing in HeLa cells expressing 960 CUG repeats", 4.47]
]}
